System: NCI/ADR-RES ovarian
Assay: NCI tumour cell line growth inhibition, 48 h
measure.name: log10 TGI (log10 of the value in µM)
Each number you see is log10 of TGI, and the unit inside the log is µM.

# log10 TGI lookup, item O=C(Nc1nc2ccc(S(=O)(=O)Nc3ccc(C4(C(F)(F)F)CC4)cc3)cc2[nH]1)c1cnccn1
1.07

Request: CO[C@H]1C(=O)[C@]2(C)[C@@H](OC)C[C@H]3OC[C@@]3(OC(C)=O)[C@H]2[C@H](OC(=O)c2ccccc2)[C@]2(O)C[C@H](OC(=O)[C@H](O)[C@@H](NC(=O)OC(C)(C)C)c3ccccc3)C(C)=C1C2(C)C
0.09

Can you check BrC1(c2ccccc2)C[n+]2c(-c3ccccc3)cc(-c3ccccc3)cc2-c2ccccc21 (stereo not given) next?
1.82

Please do the same for S=C(Sc1ccc(Cl)cc1)Sc1ccc(Cl)cc1 as well.
0.82

Try this molecule next: CCN(CC)CCCC(Nc1c2ccc(Cl)cc2nc2ccc(OC)cc12)c1ccc(Cl)cc1 (stereo not given)
0.49

Now consider C#COc1cccc(Nc2ncnc3cc(NC(=O)[C@@H](C)Cl)ccc23)c1 .
1.54

Now consider O=C(CI)NC(=O)NC(=O)NCc1ccccc1 .
1.48

Next record, please: OCCN1CCN(c2nc(N3CCCC3)c3nc(Cl)c(NCc4ccccc4)nc3n2)CC1
1.43

Same question for COc1cc2c(cc1OC)C1=C(C=O)c3ccc(OC)c(OC)c3C(O)N1CC2 (stereo not given) please.
1.90
